Reference source: patent US7741354B2

target: hQC (Homo sapiens, UniProt Q16769); experiment: Fluorometric (fluorescent) assay of hQC inhibition, IC50; format: biochemical; details: hQC inhibition; read-out: IC50
Sequence (Q16769 29-361): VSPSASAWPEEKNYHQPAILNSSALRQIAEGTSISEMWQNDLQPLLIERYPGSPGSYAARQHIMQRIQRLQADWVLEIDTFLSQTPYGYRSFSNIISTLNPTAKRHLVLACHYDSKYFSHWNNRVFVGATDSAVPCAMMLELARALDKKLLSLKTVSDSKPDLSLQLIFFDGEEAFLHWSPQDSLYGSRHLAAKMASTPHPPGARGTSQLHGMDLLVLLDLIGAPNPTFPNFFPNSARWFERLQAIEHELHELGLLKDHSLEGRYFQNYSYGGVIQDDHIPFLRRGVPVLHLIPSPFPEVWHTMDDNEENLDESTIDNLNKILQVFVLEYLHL
measurement label: IC50 (µM)

Sample answers from the record:
>  <compound>
c1csc(CCn2nnnc2C(Nc2ccc3[nH]cnc3c2)c2ccc3nsnc3c2)c1 (stereo not shown) [compound 181]

>  <IC50 (µM)>
0.4

$$$$
>  <compound>
CSc1ccc(C(Nc2ccc3[nH]cnc3c2)c2nnnn2CC2COC(C)(C)O2)cc1 (stereo not shown) [compound 130]

>  <IC50 (µM)>
7.6

$$$$

P. O=c1c(C(Nc2ccc3[nH]cnc3c2)c2nnnn2CCc2cccs2)coc2ccccc12 (stereo not shown) [compound 122]
Q. O=C(Cn1nnnc1C(Nc1ccc2[nH]cnc2c1)c1cc(Br)cc(Br)c1)NCCc1c[nH]c2ccccc12 (stereo not shown) [compound 187]
For P and Q , which recorded IC50 is lower? Output the label that corresponds to your choice. Q
(Q: 1.3 µM, P: 4.9 µM)

---

target: hQC (Homo sapiens, UniProt Q16769); test: Fluorometric (fluorescent) assay of hQC inhibition, IC50; type: biochemical; settings: read-out: IC50
measurement label: IC50 (µM)

Sample answers from the record:
>  <molecule>
CC1=CCCC[C@@H]1C(NCCCn1ccnc1)c1nnnn1Cc1ccc(Cl)cc1 (some centres unmarked)

>  <measurement label>
IC50

>  <reading unit>
µM

>  <reported measurement>
4

$$$$
>  <molecule>
CCCCn1nnnc1C(NCCCn1ccnc1)c1ccc(Cl)c(Cl)c1 (centres unmarked)

>  <measurement label>
IC50

>  <reading unit>
µM

>  <reported measurement>
7.6

$$$$
>  <molecule>
c1ccc2nc(C(NCCCn3ccnc3)c3nnnn3C[C@@H]3CCCO3)ccc2c1 (some centres unmarked)

>  <measurement label>
IC50

>  <reading unit>
µM

>  <reported measurement>
2.2

$$$$

a. Cc1ccc(C(NCCCn2ccnc2)c2nnnn2Cc2ccc(Cl)cc2)cc1C (centres unmarked)
b. Cc1cc(C)c(C(NCCCn2ccnc2)c2nnnn2C[C@@H]2CCCO2)cc1C (some centres unmarked)
Between the two listed entries a and b , which has its IC50 at the higher number? Output the label that corresponds to your choice. a
(a: 6.7 µM, b: 4 µM)

---

molecular target: UniProt:Q16769; assay: Fluorometric (fluorescent) assay of hQC inhibition, IC50; assay type: biochemical; conditions: hQC inhibition; read-out: IC50
pIC50: −log10 of the molar value.
measurement label: pIC50

Sample answers from the record:
>  <compound>
c1ccc(Cn2nnnc2C(Nc2ccc3[nH]cnc3c2)c2ccc3nsnc3c2)cc1 (stereo not shown)

>  <pIC50>
5.89

$$$$
>  <compound>
COc1ccc(C(Nc2ccc3[nH]cnc3c2)c2nnnn2Cc2cccnc2)cc1Br (stereo not shown)

>  <pIC50>
6.40

$$$$
>  <compound>
Fc1cc(C(Nc2ccc3[nH]cnc3c2)c2nnnn2CCc2cccs2)ccc1Cl (stereo not shown)

>  <pIC50>
5.40

$$$$
>  <compound>
CC(C)(C)n1nnnc1C(Nc1ccc2[nH]cnc2c1)c1csc2ccccc12 (stereo not shown)

>  <pIC50>
5.07

$$$$
>  <compound>
Brc1cc(Br)cc(C(Nc2ccc3[nH]cnc3c2)c2nnnn2C(c2ccccc2)c2ccccc2)c1 (stereo not shown)

>  <pIC50>
5.24

$$$$

P. c1ccc(-c2ccc(C(Nc3ccc4[nH]cnc4c3)c3nnnn3CCc3cccs3)cc2)nc1 (stereo not shown)
Q. CCOC(=O)C1CCCCC1n1nnnc1C(Nc1ccc2[nH]cnc2c1)c1cccc(OC)c1 (stereo not shown)
For P and Q , which recorded pIC50 is lower? Output the label that corresponds to your choice. Q
(Q: 5.07, P: 5.66)

---

biological target: hQC (Homo sapiens, UniProt Q16769); experiment: Fluorometric (fluorescent) assay of hQC inhibition, IC50; type: biochemical; conditions: read-out: IC50
measurement label: IC50 (µM)

Sample answers from the record:
>  <compound>
c1cn(CCCNC(c2ccc3[nH]ccc3c2)c2nnnn2C2CC2)cn1 (centres unmarked)

>  <reading unit>
µM

>  <IC50>
4.9

$$$$
>  <compound>
C=CCn1nnnc1C(NCCCn1ccnc1)c1ccc2ccccc2n1 (centres unmarked)

>  <reading unit>
µM

>  <IC50>
3.1

$$$$
>  <compound>
C1=COC(C(Nc2ccc3[nH]cnc3c2)c2nnnn2C2CCCCC2)CC1 (centres unmarked)

>  <reading unit>
µM

>  <IC50>
6.7

$$$$
>  <compound>
CC(CC(Nc1ccc2[nH]cnc2c1)c1nnnn1CC1CCCO1)c1ccccc1 (centres unmarked)

>  <reading unit>
µM

>  <IC50>
4

$$$$
>  <compound>
CCOC(=O)C1CCCCC1n1nnnc1C(Nc1ccc2[nH]cnc2c1)c1ccc(Br)cc1 (centres unmarked)

>  <reading unit>
µM

>  <IC50>
4.9

$$$$
>  <compound>
CCOC(=O)C1CC1C(Nc1ccc2[nH]cnc2c1)c1nnnn1CCc1cccs1 (centres unmarked)

>  <reading unit>
µM

>  <IC50>
4

$$$$

A. Cn1nnnc1C(NCCCn1ccnc1)c1ccc2[nH]ccc2c1 (centres unmarked)
B. COCCCn1nnnc1C(NCCCn1ccnc1)c1ccc2[nH]ccc2c1 (centres unmarked)
Between the two listed entries A and B , which has its IC50 at the higher number? Output the label that corresponds to your choice. B

---

target: hQC (Homo sapiens, UniProt Q16769); test: Fluorometric (fluorescent) assay of hQC inhibition, IC50; format: biochemical; conditions: read-out: IC50
measurement label: IC50 (µM)

I. CN(C)CCn1nnnc1C(NCCCn1ccnc1)c1ccc2cccc(O)c2n1 (stereo not shown)
II. COCCCn1nnnc1C(NCCCn1ccnc1)c1ccc(Cl)c(Cl)c1 (stereo not shown)
For I and II , which recorded IC50 is lower? Output the label that corresponds to your choice. I

P. Cc1ccc(O)c(C(NCCCn2ccnc2)c2nnnn2C2CC2)c1 (stereo not shown)
Q. CC1=CCCC[C@@H]1C(NCCCn1ccnc1)c1nnnn1C1CCCC1 (stereo partly shown)
Between the two listed entries P and Q , which has its IC50 at the higher number? Output the label that corresponds to your choice. Q

---

target: UniProt Q16769; test: Fluorometric (fluorescent) assay of hQC inhibition, IC50; type: biochemical; details: read-out: IC50
measurement label: IC50 (µM)

>  <molecule>
c1ccc2oc(C(Nc3ccc4[nH]cnc4c3)c3nnnn3C3CCCCC3)cc2c1 (stereo not shown)

>  <measurement label>
IC50

>  <reading unit>
µM

>  <reported measurement>
3.1

$$$$
>  <molecule>
CCCCn1nnnc1C(NCCCn1ccnc1)c1ccc2cccc(O)c2n1 (stereo not shown)

>  <measurement label>
IC50

>  <reading unit>
µM

>  <reported measurement>
2.2

$$$$
>  <molecule>
c1ccc2nc(C(NCCCn3ccnc3)c3nnnn3C3CC3)ccc2c1 (stereo not shown)

>  <measurement label>
IC50

>  <reading unit>
µM

>  <reported measurement>
5.8

$$$$
>  <molecule>
C=CCn1nnnc1C(NCCCn1ccnc1)c1ccc2[nH]ccc2c1 (stereo not shown)

>  <measurement label>
IC50

>  <reading unit>
µM

>  <reported measurement>
7.6

$$$$
>  <molecule>
CC(C)(C)Cn1nnnc1C(NCCCn1ccnc1)c1ccc2[nH]ccc2c1 (stereo not shown)

>  <measurement label>
IC50

>  <reading unit>
µM

>  <reported measurement>
4.9

$$$$
>  <molecule>
Cc1ccc(C(Nc2ccc3[nH]cnc3c2)c2nnnn2CC2CCCO2)cc1C (stereo not shown)

>  <measurement label>
IC50

>  <reading unit>
µM

>  <reported measurement>
4.9

$$$$

I. c1ccc(-c2ccc(C(Nc3ccc4[nH]cnc4c3)c3nnnn3CC3CCCO3)cc2)nc1 (stereo not shown)
II. CCCC(C)C(Nc1ccc2[nH]cnc2c1)c1nnnn1CC(=O)N1CCc2ccccc2C1 (stereo not shown)
III. COC(=O)c1cccc(C(Nc2ccc3[nH]cnc3c2)c2nnnn2Cc2ccc(Cl)cc2)c1 (stereo not shown)
IV. COC(=O)Cn1nnnc1C(NCCCn1ccnc1)C1CC1 (stereo not shown)
# desc sort on IC50 across 4 molecules Answer format: the labels, ordered as requested. II, I, III, IV
(II: 6.7 µM, I: 3.1 µM, III: 1.3 µM, IV: 0.4 µM)

---

Biological target: hQC (Homo sapiens, UniProt Q16769)
Test: Fluorometric (fluorescent) assay of hQC inhibition, IC50
Assay type: biochemical
Settings: read-out: IC50
Protocol: All compounds were immediately tested regarding their activity as hQC inhibitors. The purity of the compounds was determined by HPLC-MS. The IC50 value against hQC was measured using the fluorescent assay. All measurements were performed with a BioAssay Reader HTS-7000Plus for microplates (Perkin Elmer) at 30° C. QC activity was evaluated fluorometrically using H-Gln-βNA. […] QC activity was determined from a standard curve of β-naphthylamine under assay conditions. […]
pIC50: −log10 of the molar value.
measurement label: pIC50

Sample answers from the record:
>  <molecule>
COc1ccc(C(Nc2ccc3[nH]cnc3c2)c2nnnn2CC2CCCO2)cc1Br (stereo not shown) [compound 109]

>  <reported measurement>
5.89

$$$$
>  <molecule>
Fc1cc(C(Nc2ccc3[nH]cnc3c2)c2nnnn2C2CCCCC2)ccc1Cl (stereo not shown) [compound 107]

>  <reported measurement>
5.31

$$$$
>  <molecule>
Oc1cccc2ccc(C(NCCCn3ccnc3)c3nnnn3Cc3ccc(Cl)cc3)nc12 (stereo not shown) [compound 4]

>  <reported measurement>
5.31

$$$$
>  <molecule>
COC(=O)Cn1nnnc1C(NCCCn1ccnc1)c1ccc(Cl)c(Cl)c1 (stereo not shown) [compound 50]

>  <reported measurement>
5.40

$$$$
>  <molecule>
CCCCn1nnnc1C(NCCCn1ccnc1)c1cc(C)c(C)cc1C (stereo not shown) [compound 24]

>  <reported measurement>
5.31

$$$$

I. COC(=O)Cn1nnnc1C(NCCCn1ccnc1)c1ccc(OC)c(O)c1 (stereo not shown) [compound 58]
II. CCOC(=O)C1CCCCC1n1nnnc1C(Nc1ccc2[nH]cnc2c1)c1ccc(Cl)cc1 (stereo not shown) [compound 94]
III. Cc1ccc(O)c(C(NCCCn2ccnc2)c2nnnn2CC(C)(C)C)c1 (stereo not shown) [Compound 63]
Could you please order the items by pIC50, going from the lowest number to the highest? Answer format: the labels, ordered as requested. II, I, III
